Kd values, listed per item
target: UniProt Q07817
Sequence (Q07817 whole entry): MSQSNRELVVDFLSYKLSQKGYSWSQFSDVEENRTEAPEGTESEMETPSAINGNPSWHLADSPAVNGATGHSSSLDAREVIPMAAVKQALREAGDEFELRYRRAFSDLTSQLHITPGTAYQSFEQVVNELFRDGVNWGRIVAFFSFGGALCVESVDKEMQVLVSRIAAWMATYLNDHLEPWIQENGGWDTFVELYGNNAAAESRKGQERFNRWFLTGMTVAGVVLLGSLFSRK

MOLECULE	MEASUREMENT_TARGET	Kd
CN1CCOC(CNc2ccc(S(=O)(=O)NC(=O)c3ccc(N4CCN(CC5=C(C67CC(C)(C6)C7)CC(C)(C)CC5)CC4)cc3Oc3cnc4[nH]ccc4c3)cc2[N+](=O)[O-])C1 (stereo not shown)	UniProt Q07817	10 to 100 nM
CC1(C)CCC(CN2CCN(c3ccc(C(=O)NS(=O)(=O)c4ccc(NCC5CCOCC5)c([N+](=O)[O-])c4)c(Oc4cnc5[nH]ccc5c4)c3)CC2)=C(C23CC(C(F)(F)F)(C2)C3)C1	UniProt Q07817	> 100 nM
CC1(C)CCC(CN2CCN(c3ccc(C(=O)NS(=O)(=O)c4ccc(NCC5CCOCC5)c([N+](=O)[O-])c4)c(Oc4cnc5[nH]ccc5c4)c3)CC2)=C(C23CC(C(C)(F)F)(C2)C3)C1	UniProt Q07817	> 100 nM
CC1(C)CCC(C23CC(C)(C2)C3)=C(CN2CCN(c3ccc(C(=O)NS(=O)(=O)c4ccc(N[C@H](CCN5CCOCC5)CSc5ccccc5)c(S(=O)(=O)C(F)(F)F)c4)cc3)CC2)C1	UniProt Q07817	10 to 100 nM
CC1(C)CCC(CN2CCN(c3ccc(C(=O)NS(=O)(=O)c4ccc(NC[C@H]5CC[C@](C)(O)CC5)c([N+](=O)[O-])c4)c(Oc4cnc5[nH]ccc5c4)c3)CC2)=C(C23CC(C(F)F)(C2)C3)C1	UniProt Q07817	> 100 nM
CC1(C)CCC(CN2CCN(c3ccc(C(=O)NS(=O)(=O)c4ccc(NC[C@H]5CC[C@](C)(O)CC5)c([N+](=O)[O-])c4)c(Oc4cnc5[nH]ccc5c4)c3)CC2)=C(C23CC(C)(C2)C3)C1	UniProt Q07817	> 100 nM
CC1(C)CCC(CN2CCN(c3ccc(C(=O)NS(=O)(=O)c4ccc(NCC5CCOCC5)c([N+](=O)[O-])c4)c(Oc4cnc5[nH]ccc5c4)c3)CC2)=C(C23CC(Cl)(C2)C3)C1	UniProt Q07817	> 100 nM
